Dear all, I have gathered published log10 of Ki values for the protein given by its sequence; the list follows.
Target chain: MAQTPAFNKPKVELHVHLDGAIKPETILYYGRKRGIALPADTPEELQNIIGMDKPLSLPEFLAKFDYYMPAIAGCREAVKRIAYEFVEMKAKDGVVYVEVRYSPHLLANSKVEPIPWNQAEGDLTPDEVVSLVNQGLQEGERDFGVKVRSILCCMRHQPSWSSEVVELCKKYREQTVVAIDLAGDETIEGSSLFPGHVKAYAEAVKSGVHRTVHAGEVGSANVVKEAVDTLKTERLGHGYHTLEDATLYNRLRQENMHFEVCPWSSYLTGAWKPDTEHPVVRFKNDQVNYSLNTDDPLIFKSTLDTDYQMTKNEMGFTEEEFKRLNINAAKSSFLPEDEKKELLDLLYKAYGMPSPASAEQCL
Plainly stated, the numbers are log10 of Ki given in µM.

Consider the reported log10 of Ki for these compounds:
- compound: "OCC1NC=Nc2c1ncn2[C@@H]1O[C@H](CO)[C@@H](O)[C@H]1O (single isomer, unassigned; diastereomer 2)"
  test.system: "the protein given by its sequence"
  measured.value: 1.10
- compound: "CCOC(=O)CCCCCn1cnc2c1NC=NCC2O (stereo not given)"
  test.system: "the protein given by its sequence"
  measured.value: 0.48
- compound: "COc1ccc(COC2c3c(ncn3Cc3ccc(OC)cc3)N=CN(C)N2C)cc1 (stereo not given)"
  test.system: "the protein given by its sequence"
  measured.value: 1.89

Each compound below has a reported value. Please supply its log10 of Ki.
1. Nc1ncnc2c1ncn2[C@H]1CC[C@@H](CO)O1
2. OC[C@H]1O[C@@H](n2cnc3c(O)ncnc32)C[C@@H]1O
3. OC[C@H]1O[C@@H](n2cnc3c(NC4CCC4)ccnc32)C[C@@H]1O
4. CCOC(=O)c1cc(CCn2cnc3c2NC=NCC3O)c2c(c1OC)CCCC2 (stereo not given)

2.08
2.18
1.99
0.57
